This collection of values is drawn from patent US11999727B2.

Measured pIC50, listed per entry.
# targetEntity: PRMT5 (Homo sapiens, UniProt O14744)
# Construct: purchased Viva (custom protein)
# Sequence (O14744 whole entry): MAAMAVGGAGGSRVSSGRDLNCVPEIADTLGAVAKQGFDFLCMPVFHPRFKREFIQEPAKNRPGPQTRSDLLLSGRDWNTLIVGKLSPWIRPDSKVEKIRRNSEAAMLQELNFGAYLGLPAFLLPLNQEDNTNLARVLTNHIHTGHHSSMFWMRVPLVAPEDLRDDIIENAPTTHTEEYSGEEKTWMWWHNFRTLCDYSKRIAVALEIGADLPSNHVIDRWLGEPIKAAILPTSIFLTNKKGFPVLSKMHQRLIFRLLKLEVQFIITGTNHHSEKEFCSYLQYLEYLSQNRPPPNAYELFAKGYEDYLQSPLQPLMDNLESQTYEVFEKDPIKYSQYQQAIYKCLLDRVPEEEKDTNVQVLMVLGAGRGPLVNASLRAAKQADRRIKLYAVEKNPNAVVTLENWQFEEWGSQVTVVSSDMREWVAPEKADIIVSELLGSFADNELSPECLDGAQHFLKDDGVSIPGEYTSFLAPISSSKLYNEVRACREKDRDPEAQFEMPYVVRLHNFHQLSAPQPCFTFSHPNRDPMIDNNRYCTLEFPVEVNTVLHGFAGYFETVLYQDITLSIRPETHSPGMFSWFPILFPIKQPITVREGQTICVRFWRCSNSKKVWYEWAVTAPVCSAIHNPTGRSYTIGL
# Sequence (Q9BQA1 whole entry partner): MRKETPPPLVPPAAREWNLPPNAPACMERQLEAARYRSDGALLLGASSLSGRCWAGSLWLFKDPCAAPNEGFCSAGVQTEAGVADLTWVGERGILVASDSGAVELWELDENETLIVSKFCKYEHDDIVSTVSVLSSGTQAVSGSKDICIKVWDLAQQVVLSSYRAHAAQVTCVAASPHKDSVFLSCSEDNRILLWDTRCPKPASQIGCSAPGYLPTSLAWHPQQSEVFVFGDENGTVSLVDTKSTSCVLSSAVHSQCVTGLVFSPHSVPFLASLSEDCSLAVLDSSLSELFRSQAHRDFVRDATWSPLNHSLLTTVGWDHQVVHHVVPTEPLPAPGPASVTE
# assayProtocol: PRMT5 biochemical IC50 assay with SAM as cofactor
# experimentalConditions: PRMT5, SAM as cofactor; read-out: SAM IC50
pIC50: −log10 of the molar value.

Example compounds with recorded pIC50:
Q: Fill blank: measured pIC50 of the compound COc1ncc(NC(=O)C(=O)N2C[C@H](C)CC[C@H]2c2ccc3sc(CCN(C)C)nc3c2)cc1C(N)=O (single isomer, unassigned) [Compound 1197] is ____.
Ans: < 6.30

Q: What value of measured pIC50 is listed for COc1ncc(NC(=O)C(=O)N2C[C@@H](C)CC[C@@H]2c2ccc3cn(C4CCN(C)CC4)nc3c2)cc1C(N)=O (racemic) [Compound 1299] ?
Ans: > 7.30

Q: Record request: pIC50 value, item Cc1cc(NC(=O)C(=O)N2C[C@H](C)CC[C@H]2c2ccc3sc(N)nc3c2)cnc1C (racemic) [Compound 920]
Ans: 6.30 to 7.30

Continuing:
Q: Consider the compound Cc1cc(NC(=O)C(=O)N2C[C@@H](C)CC[C@@H]2c2ccc3sc(C4CCN(C)CC4)nc3c2)cnc1C [Compound 1137] and give its measured pIC50.
Ans: > 7.30

Q: Give the measured pIC50 of Cc1cc(NC(=O)C(=O)N2CCCCC2C(C)C)cnc1N (racemic) [Compound 135] .
Ans: 6.30 to 7.30

Q: Which pIC50 value is on record for CCc1cc(NC(=O)C(=O)N2C[C@@H](C)CC[C@@H]2c2ccc3sc(C4CN(C)C4)nc3c2)cnc1N [Compound 1151] ?
Ans: > 7.30

Q: Which pIC50 value belongs to CC[C@@H]1CC[C@H](c2ccccc2)N(C(=O)C(=O)Nc2cncc(C(N)=O)c2)C1 (single isomer, unassigned) [Compound 565] ?
Ans: 6.30 to 7.30

Q: Can you share its pIC50? I mean this compound: COc1ccc([C@@H]2CC[C@@H](C)CN2C(=O)C(=O)Nc2cncc(C(N)=O)c2)cc1C#N (racemic) [Compound 237]
Ans: 6.30 to 7.30

Q: May I ask what pIC50 has been recorded for Cc1cc(NC(=O)C(=O)N2C[C@H](C)CC[C@H]2c2ccc(-c3nccs3)cn2)cnc1N (racemic) [Compound 991] ?
Ans: 6.30 to 7.30

Q: Name the reported pIC50 value associated with the compound NC(=O)c1cncc(NC(=O)C(=O)N2CCCCC2C2CCCCC2)c1 (centres unmarked) [Compound 101]
Ans: 6.30 to 7.30

Q: Would you kindly share the measured pIC50 for CCc1cc(NC(=O)C(=O)N2C[C@H](C)CC[C@H]2c2ccc(NS(C)(=O)=O)nc2)cnc1N (single isomer, unassigned) [Compound 995] ?
Ans: 6.30 to 7.30
